test-name: Solubility test of argatroban in water with various compounds (shaken with excess argatroban, HPLC)
Format: physicochemical
condition-set: phosphate buffer, pH 7, aqueous buffer, argatroban with β-cyclodextrin 1.0 W/V %; phosphate buffer pH 7.0, 25° C., 12 hours

| compound | solubility thermodynamic at 12 h [µg/mL] |
| --- | --- |
| CC1CNc2c(cccc2S(=O)(=O)N[C@@H](CCCNC(=N)N)C(=O)N2CC[C@@H](C)C[C@@H]2C(=O)O)C1.O (mixture of isomers) | 2590 |
